Reference source for all entries: patent US11660351B2

# Test system: MOLM-13
# testProtocol: Cytotoxic effect, MTT assay, MOLM-13 cells
# Assay type: cell-based
# conditionsUsed: Homo sapiens, Table 2, metabolites
# Experimental: After 48 h, the medium was replaced. […] The suspension cells were counted and sown into a 96-well culture plate with white bottom (from Costar #3610) (#3610) (MOLM-13: 2000 cells/well; NB4: 7000 cells/well; MV-4-11: 5000 cells/well in a total volume of 100 μl). […] After 96 h, the cell proliferation was detected using the MTT assay (ATCC, Manassas, Va., USA, catalogue No. 30-1010K). […] The dye formed was detected at 570 nm (Infinite M1000 pro, Tecan). […]
valueType: IC50 (nM)
Just the number please, in nM, no unit attached.

# molecule CC(C)(C)[C@H](c1cc(-c2cc(F)ccc2F)cn1Cc1ccccc1)N(CCCN)C(=O)CO [Reference Example R3M] ; its IC50 = 0.0669
